MEASURED_TARGET: Angiotensin II-Rezeptor (Bos taurus, UniProt P25104)
Construct: an partiell gereinigten Membranfraktionen boviner NNR mit radioaktivem Angiotensin II; from tissue; host or cells: bovine adrenal cortex, partially purified membrane fractions
Sequence (P25104 1-359): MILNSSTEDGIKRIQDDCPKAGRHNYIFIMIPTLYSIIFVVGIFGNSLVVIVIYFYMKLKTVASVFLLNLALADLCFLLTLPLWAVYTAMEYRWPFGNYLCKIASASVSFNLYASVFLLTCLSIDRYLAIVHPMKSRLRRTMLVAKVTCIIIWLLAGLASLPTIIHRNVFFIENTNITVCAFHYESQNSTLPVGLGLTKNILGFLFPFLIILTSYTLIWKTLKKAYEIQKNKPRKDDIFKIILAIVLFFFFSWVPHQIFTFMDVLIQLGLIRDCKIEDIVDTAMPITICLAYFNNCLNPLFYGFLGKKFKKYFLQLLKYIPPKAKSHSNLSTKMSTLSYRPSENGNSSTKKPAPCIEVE
PROTOCOL_DETAILS: Angiotensin II receptor binding on membrane fractions of bovine adrenal cortex (3H-angiotensin II)
Parameters: species or system Rind
CONDITION_INFO: bovine adrenal cortex membranes, 3H-Angiotensin II 3-5 nM, 60 min, room temperature; read-out: Ki
MEASUREMENT_KIND: pKi
Expect pKi as a plain number equal to -log10 of the molar concentration.

Quick check: pKi of `CCCCc1nc2cccc(C(=O)OC)c2n1Cc1ccc(S(=O)(=O)N2CCC[C@H]2C(=O)OC(C)(C)C)cc1F` ?
6.13

The values you see were collected from patent EP0643060A2.
